target: RBD-Fc/ACE2-Strep (Severe acute respiratory syndrome coronavirus 2, UniProt P0DTC2); assay: biochemical
Readout kind: pIC50
Give bare numbers, as −log10 of the molar value.

For this compound ( CCCCCCCC/C=C\CCCCCCCC(=O)O ), measured pIC50 is 4.45
